target: PD-1-Fc (Homo sapiens); assay: ForteBio, PD-1-Fc
Sequence (chain, as listed by the source limits assumed): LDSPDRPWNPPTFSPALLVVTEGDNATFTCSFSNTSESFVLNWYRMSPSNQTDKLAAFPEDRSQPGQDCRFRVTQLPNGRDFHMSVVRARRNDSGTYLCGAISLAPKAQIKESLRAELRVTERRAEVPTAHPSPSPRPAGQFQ
label 1 means recorded Fortebio binding to PD-1-Fc Response Units (Response Units) is -0.001 or above; label 0 means it is below -0.001.

Reference set (2 entries):
{"Binder": "variant PD-L2 IgV-Fc H15Q, T47A, Q72H, R76G, I86T (Fc fusion) LFTVTVPKELYIIEQGSNVTLECNFDTGSHVNLGAITASLQKVENDASPHRERATLLEEQLPLGKASFHIPHVQVGDEGQYQCIITYGVAWDYKYLTLKVKA", "Assigned Category": "label 1"}
{"Binder": "variant PD-L2 IgV-Fc I13V, H15Q, T47A, R76G, V89D (Fc fusion) LFTVTVPKELYIVEQGSNVTLECNFDTGSHVNLGAITASLQKVENDASPHRERATLLEEQLPLGKASFHIPQVQVGDEGQYQCIIIYGDAWDYKYLTLKVKA", "Assigned Category": "label 1"}

Query :: Threshold query (Fortebio binding to PD-1-Fc Response Units (Response Units) >= -0.001) on variant PD-L2 IgV-Fc I13V, H15Q, T47A, Q82R, V89D (SEQ ID NO 725) (Fc fusion) LFTVTVPKELYIVEQGSNVTLECDFDTGSHVNLGAITASLQKVENDTSPHRERATLLEEQLPLGKASFHIPQVQVRDEGQYRCIIIYGDAWDYKYLTLKVKA
Result :: label 1

Query :: Threshold query (Fortebio binding to PD-1-Fc Response Units (Response Units) >= -0.001) on variant PD-L2 IgV-Fc N24D (Fc fusion) LFTVTVPKELYIIEHGSNVTLECDFDTGSHVNLGAITASLQKVENDTSPHRERATLLEEQLPLGKASFHIPQVQVRDEGQYQCIIIYGVAWDYKYLTLKVKA
Result :: label 0
